# tested on: Human recombinant PDE10A (hPDE10A) (Homo sapiens)
# Construct: His tag (inferred from metal chelate purification); made in house; host or cells: Sf9 insect cells (baculovirus)
# protocol notes: In vitro assay PDE10A, human clone (SPA, 3H-cAMP hydrolysis)
# Type: biochemical
# run conditions: human clone by default (no (r) mark); read-out: hPDE10A2 or rPDE10A2 pIC50 (converted)
Lab note - cut at 1000 nM for IC50: TRUE if strictly below, FALSE if not.

# example entries with known answers
1. COc1cc(C(=O)N2[C@H]3CC[C@H](c4cc(C(F)F)nc5ncnn45)[C@@H]2CC3)ccc1F [Compound 343]: FALSE
2. COc1cccc2c1OCC(C(=O)N1[C@H]3CC[C@H](c4cc(C(F)F)nc5ncnn45)[C@@H]1CC3)=C2 [Compound 296]: TRUE
3. C[C@@H]1CCN(C(=O)c2cc(C3CC3)ncc2F)C[C@@]1(F)c1cc(C(F)F)nc2ncnn12 [Compound 277]: FALSE
4. Cc1cc(C(=O)N2[C@H]3CC[C@H](c4cc(C(F)F)nc5ncnn45)[C@@H]2CC3)cnc1C [Compound 366]: FALSE

IC50 under 1000 nM? Item: O=C(c1cccc2ncccc12)N1[C@H]2CC[C@H](c3cc(C(F)F)nc4ncnn34)[C@@H]1CC2 [Compound 315] FALSE

Determine if Cc1cc(C(=O)N2[C@H]3CC[C@H](c4cc(C(F)F)nc5ncnn45)[C@@H]2CC3)cc(C)c1C#N [Compound 299] shows IC50 strictly lower than 1000 nM. FALSE

* * *

Emax by entry:
# tested on: Human recombinant PDE2A (hPDE2A) (Homo sapiens, UniProt O00408)
# Construct: His tag (inferred from metal chelate purification); made in house; host or cells: Sf9 insect cells (baculovirus)
# Sequence (O00408 whole entry): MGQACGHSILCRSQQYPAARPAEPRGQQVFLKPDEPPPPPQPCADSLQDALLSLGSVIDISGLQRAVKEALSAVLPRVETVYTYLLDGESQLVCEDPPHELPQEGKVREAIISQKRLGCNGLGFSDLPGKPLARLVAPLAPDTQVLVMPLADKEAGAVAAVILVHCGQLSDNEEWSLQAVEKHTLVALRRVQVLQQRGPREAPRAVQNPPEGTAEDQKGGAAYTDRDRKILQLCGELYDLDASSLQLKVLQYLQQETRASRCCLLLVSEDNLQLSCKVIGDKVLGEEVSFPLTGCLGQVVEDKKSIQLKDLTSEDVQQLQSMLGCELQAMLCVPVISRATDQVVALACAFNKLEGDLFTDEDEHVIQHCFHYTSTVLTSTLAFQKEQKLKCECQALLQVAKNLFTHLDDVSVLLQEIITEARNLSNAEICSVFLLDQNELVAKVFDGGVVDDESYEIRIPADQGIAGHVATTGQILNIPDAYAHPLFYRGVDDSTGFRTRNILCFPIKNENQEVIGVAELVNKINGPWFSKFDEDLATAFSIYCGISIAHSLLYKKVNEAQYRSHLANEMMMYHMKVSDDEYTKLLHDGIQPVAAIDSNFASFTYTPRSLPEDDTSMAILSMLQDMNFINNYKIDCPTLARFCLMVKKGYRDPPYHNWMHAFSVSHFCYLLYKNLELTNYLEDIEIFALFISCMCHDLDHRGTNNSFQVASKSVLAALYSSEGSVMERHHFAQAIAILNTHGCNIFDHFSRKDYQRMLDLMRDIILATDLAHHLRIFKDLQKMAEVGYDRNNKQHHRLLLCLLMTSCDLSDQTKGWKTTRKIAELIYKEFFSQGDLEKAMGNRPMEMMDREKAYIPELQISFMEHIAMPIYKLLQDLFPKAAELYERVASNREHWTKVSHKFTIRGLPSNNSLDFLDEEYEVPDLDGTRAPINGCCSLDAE
# protocol notes: In vitro assay PDE2A (SPA, 3H-cGMP hydrolysis)
# Type: biochemical
# run conditions: read-out: hPDE2A Emax
The reply should be a number in %, with the unit left off.

Emax in this record for CC(=O)N1CCc2cc(C(=O)N3CCC[C@@](C)(c4cc(C(F)F)nc5ncnn45)C3)ccc21 (single isomer, unassigned) : 48

Noted for O=C(c1cnc2c(F)cccc2c1)N1[C@H]2CC[C@H](c3cc(C(F)F)nc4ncnn34)[C@@H]1CC2 : its Emax reads 100

GET /value?item= C[C@@H]1CCN(C(=O)c2ccc(N)nc2)C[C@H]1c1cc(C(F)F)nc2ncnn12 &field=Emax returns 98

So for C[C@@H]1CCN(C(=O)c2ccc(Cl)c(Cl)c2)C[C@H]1c1cc(C(F)F)nc2ncnn12 , the logged Emax turned out to be 100

* * *

# tested on: Human recombinant PDE2A (hPDE2A) (Homo sapiens, UniProt O00408)
# Construct: His tag (inferred from metal chelate purification); made in house; host or cells: Sf9 insect cells (baculovirus)
# protocol notes: In vitro assay PDE2A (SPA, 3H-cGMP hydrolysis)
# Type: biochemical
# run conditions: human recombinant PDE2A; read-out: hPDE2A Emax
Listing of recorded Emax by entry.
Please give a number only; it is taken to be in %.

Reference set (2 entries):
1. Cc1cnoc1C(=O)N1CC[C@@H](C)[C@H](c2cc(C(F)F)nc3ncnn23)C1: 99
2. C[C@@H]1CCN(C(=O)c2ccn3cccc3c2)C[C@H]1c1cc(C(F)F)nc2ncnn12: 101

Lab entry: Human recombinant PDE2A (hPDE2A) (Homo sapiens, UniProt O00408) assay, compound Cc1cc(C(=O)N2CC[C@@H](C)[C@H](c3cc(C(F)F)nc4ncnn34)C2)c(C(F)(F)F)cn1 , Emax = 99

* * *

# tested on: Human recombinant PDE10A (hPDE10A) (Homo sapiens, UniProt Q9Y233)
# Construct: His tag (inferred from metal chelate purification); made in house; host or cells: Sf9 insect cells (baculovirus)
# Sequence (Q9Y233 267-1055): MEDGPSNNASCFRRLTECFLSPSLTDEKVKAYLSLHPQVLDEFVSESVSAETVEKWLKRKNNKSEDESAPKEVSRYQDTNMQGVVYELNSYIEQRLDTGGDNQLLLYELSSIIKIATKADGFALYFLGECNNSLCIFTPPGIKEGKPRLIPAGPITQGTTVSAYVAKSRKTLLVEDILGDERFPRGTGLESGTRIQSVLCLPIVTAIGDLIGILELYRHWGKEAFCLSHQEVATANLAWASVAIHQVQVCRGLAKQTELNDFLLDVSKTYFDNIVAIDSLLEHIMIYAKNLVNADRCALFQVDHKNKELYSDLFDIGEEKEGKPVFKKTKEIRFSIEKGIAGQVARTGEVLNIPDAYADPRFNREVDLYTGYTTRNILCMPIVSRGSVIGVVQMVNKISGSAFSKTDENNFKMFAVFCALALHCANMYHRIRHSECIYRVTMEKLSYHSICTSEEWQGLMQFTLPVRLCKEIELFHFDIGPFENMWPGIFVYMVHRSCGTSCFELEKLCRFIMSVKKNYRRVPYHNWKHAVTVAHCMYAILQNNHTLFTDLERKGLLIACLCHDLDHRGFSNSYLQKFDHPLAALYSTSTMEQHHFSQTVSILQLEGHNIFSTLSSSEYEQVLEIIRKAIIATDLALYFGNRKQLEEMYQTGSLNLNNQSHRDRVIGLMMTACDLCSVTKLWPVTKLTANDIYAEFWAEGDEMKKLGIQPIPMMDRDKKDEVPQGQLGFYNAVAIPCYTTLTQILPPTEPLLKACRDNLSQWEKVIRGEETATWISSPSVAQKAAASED
# protocol notes: In vitro assay PDE10A, human clone (SPA, 3H-cAMP hydrolysis)
# Format: biochemical
# run conditions: human clone (h), default; read-out: hPDE10A2 pIC50 (converted)
t if IC50 is below 0.1 µM. f if not; exact matches included in f.

The examples below pair each entry with its known result.
1) C[C@@H]1CCN(C(=O)c2ncccc2N)C[C@H]1c1cc(C(F)F)nc2ncnn12: f
2) Cc1cc(C(=O)N2CCC[C@](C)(c3cc(C(F)F)nc4ncnn34)C2)cc(C)n1 (single isomer, unassigned): f
3) COc1cc(C(=O)N2CC[C@@H](C)[C@H](c3cc(C(F)F)nc4ncnn34)C2)ccc1Cl: f
4) C[C@@H]1CCN(C(=O)c2ccc(C3CC3)c(C3CC3)c2)C[C@H]1c1cc(C(F)F)nc2ncnn12: t
5) C[C@@H]1CCN(C(=O)c2ccc(C(C)(C)C)o2)C[C@H]1c1cc(C(F)F)nc2ncnn12: f

Is IC50 of Cc1cc(C(=O)N2[C@H]3CC[C@H](c4cc(C(F)F)nc5ncnn45)[C@@H]2CC3)cc(C)n1 [Compound 29] strictly below 0.1 µM? f

Take the molecule COc1nc(C)c(C(=O)N2CC[C@@H](C)[C@H](c3cc(C(F)F)nc4ncnn34)C2)s1 and say whether its IC50 is less than 0.1 µM. f

Determine whether this molecule shows IC50 lower than 0.1 µM (ties excluded): C[C@@H]1CCN(C(=O)c2ccc(OC(F)F)c(F)c2)C[C@H]1c1cc(C(F)F)nc2ncnn12 t

* * *

# tested on: Human recombinant PDE3A (hPDE3A) (Homo sapiens, UniProt Q14432)
# Construct: purchased Scottish Biomedical; host or cells: Sf9 insect cells
# Sequence (Q14432 whole entry): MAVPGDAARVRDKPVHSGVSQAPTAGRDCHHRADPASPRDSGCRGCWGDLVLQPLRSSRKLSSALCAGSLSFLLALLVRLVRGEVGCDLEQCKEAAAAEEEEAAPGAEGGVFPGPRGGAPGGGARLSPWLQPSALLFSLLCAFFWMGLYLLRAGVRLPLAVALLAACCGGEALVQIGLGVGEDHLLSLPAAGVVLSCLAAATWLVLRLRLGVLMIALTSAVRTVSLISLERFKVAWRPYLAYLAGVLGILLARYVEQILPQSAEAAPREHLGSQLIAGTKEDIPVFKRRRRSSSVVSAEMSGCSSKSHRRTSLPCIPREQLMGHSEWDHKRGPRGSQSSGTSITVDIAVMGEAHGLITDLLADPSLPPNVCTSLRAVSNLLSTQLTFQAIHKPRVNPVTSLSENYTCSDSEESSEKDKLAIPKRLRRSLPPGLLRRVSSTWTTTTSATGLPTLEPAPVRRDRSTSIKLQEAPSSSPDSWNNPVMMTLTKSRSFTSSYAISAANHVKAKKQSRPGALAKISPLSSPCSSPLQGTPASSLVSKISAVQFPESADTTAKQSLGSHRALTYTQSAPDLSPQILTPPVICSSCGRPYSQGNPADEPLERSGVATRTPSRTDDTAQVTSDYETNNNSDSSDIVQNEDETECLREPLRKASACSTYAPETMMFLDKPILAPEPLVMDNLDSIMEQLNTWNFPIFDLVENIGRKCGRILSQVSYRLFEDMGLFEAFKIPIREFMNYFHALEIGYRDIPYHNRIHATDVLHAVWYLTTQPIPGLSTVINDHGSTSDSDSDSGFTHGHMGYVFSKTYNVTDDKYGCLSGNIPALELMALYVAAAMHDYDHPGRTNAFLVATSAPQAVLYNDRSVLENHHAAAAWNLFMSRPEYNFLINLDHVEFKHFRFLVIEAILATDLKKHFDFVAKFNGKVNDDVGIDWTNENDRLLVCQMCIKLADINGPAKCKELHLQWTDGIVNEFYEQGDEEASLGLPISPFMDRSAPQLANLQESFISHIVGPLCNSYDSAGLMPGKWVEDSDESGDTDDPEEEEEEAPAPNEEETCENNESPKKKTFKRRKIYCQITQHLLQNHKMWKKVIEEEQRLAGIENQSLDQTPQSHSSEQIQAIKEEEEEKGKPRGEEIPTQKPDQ
# protocol notes: In vitro assay PDE3A (SPA, 3H-cAMP hydrolysis);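 note: the method names PDE3A and the table heading PDE3B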
# Format: biochemical
# run conditions: read-out: hPDE3B Emax; read-out: Emax
Reported Emax values are given for each entry in this list.

Here is how some compounds turned out for Emax.
1. Cc1cc(C(=O)N2CC[C@@H](C)[C@H](c3cc(C(F)F)nc4ncnn34)C2)cc(Cl)n1: 58%
2. CN(C)c1ccc(C(=O)N2[C@H]3CC[C@H](c4cc(C(F)F)nc5ncnn45)[C@@H]2CC3)cc1: 88%
3. Cc1cc(C(=O)N2CC[C@@H](C)[C@H](c3cc(C(F)F)nc4ncnn34)C2)cc(C(F)(F)F)n1: 46%

Note to self: Emax recorded for COc1cc(C(=O)N2CC[C@@H](C)[C@H](c3cc(C(F)F)nc4ncnn34)C2)c(F)cn1 was 64%

Sample COc1cc(C(=O)N2[C@H]3CC[C@H](c4cc(C(F)F)nc5ncnn45)[C@@H]2CC3)cc(OC)n1 ; Emax observed: 62%

* * *

# tested on: Human recombinant PDE3A (hPDE3A) (Homo sapiens)
# Construct: purchased Scottish Biomedical; host or cells: Sf9 insect cells
# protocol notes: In vitro assay PDE3A (SPA, 3H-cAMP hydrolysis);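 note: the method names PDE3A and the table heading PDE3B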
# Format: biochemical
# run conditions: hPDE3B pIC50; read-out: pIC50 (converted)
The following compounds are shown together with reported IC50 values.
All answers are understood in nM, so give the number only.

get_value(item= Cc1cc([C@@H]2CN(C(=O)c3cc(Cl)ncc3Cl)CC[C@H]2C)n2ncnc2n1 , readout=IC50) returns 7410

Record COc1cc(C(=O)N2CC[C@@H](C)[C@H](c3cc(C(F)F)nc4ncnn34)C2)cc(OC)n1 , field IC50: 1260

IC50 reported for this compound C[C@@H]1CCN(C(=O)c2cccc(OC(F)(F)F)c2F)C[C@H]1c1cc(C(F)F)nc2ncnn12 : 1740

Entry Cn1ccc2cc(C(=O)N3[C@H]4CC[C@H](c5cc(C(F)F)nc6ncnn56)[C@@H]3CC4)ccc21 ; IC50 = 977

Form: compound = C[C@@H]1CCN(C(=O)c2ccc(OC(F)F)c(F)c2)C[C@H]1c1cc(C(F)F)nc2ncnn12 ; IC50 = 724

* * *

Examples of molecules with documented IC50 follow.
# tested on: Human recombinant PDE2A (hPDE2A) (Homo sapiens)
# Construct: His tag (inferred from metal chelate purification); made in house; host or cells: Sf9 insect cells (baculovirus)
# protocol notes: In vitro assay PDE2A (SPA, 3H-cGMP hydrolysis)
# Type: biochemical
# run conditions: read-out: hPDE2A pIC50 (converted)
The figure you give is taken to be in nM; do not add the unit.

Some entries whose results are on file:
1. Cc1nc2ccncc2cc1C(=O)N1CC[C@@H](C)[C@H](c2cc(C(F)F)nc3ncnn23)C1: 40.7
2. COc1c(C)cc(C(=O)N2[C@H]3CC[C@H](c4cc(C(F)F)nc5ncnn45)[C@@H]2CC3)cc1C: 2.51

Entry C[C@@H]1CCN(C(=O)c2ccncc2F)C[C@H]1c1cc(C(F)F)nc2ncnn12 ; IC50 = 53.7

According to the records, this molecule O=C(c1cccc2ccccc12)N1[C@H]2CC[C@H](c3cc(C(F)F)nc4ncnn34)[C@@H]1CC2 displays IC50 of 53.7

Reported IC50 for C/C(=C\c1ccccc1)C(=O)N1[C@H]2CC[C@H](c3cc(C(F)F)nc4ncnn34)[C@@H]1CC2 was 13.8

Quick note, IC50 for Cc1cc(C(=O)N2[C@H]3CC[C@H](c4cc(C(F)F)nc5ncnn45)[C@@H]2CC3)cc(C)n1 [Compound 29] landed at 1.51

IC50 recorded for this molecule, C[C@@H]1CCN(C(=O)c2ccc3ncccc3c2)C[C@H]1c1cc(C(F)F)nc2ncnn12 , is 0.501
